Target: Tyrosine-protein kinase ITK/TSK (Homo sapiens, UniProt Q08881)
Sequence (Q08881 whole entry): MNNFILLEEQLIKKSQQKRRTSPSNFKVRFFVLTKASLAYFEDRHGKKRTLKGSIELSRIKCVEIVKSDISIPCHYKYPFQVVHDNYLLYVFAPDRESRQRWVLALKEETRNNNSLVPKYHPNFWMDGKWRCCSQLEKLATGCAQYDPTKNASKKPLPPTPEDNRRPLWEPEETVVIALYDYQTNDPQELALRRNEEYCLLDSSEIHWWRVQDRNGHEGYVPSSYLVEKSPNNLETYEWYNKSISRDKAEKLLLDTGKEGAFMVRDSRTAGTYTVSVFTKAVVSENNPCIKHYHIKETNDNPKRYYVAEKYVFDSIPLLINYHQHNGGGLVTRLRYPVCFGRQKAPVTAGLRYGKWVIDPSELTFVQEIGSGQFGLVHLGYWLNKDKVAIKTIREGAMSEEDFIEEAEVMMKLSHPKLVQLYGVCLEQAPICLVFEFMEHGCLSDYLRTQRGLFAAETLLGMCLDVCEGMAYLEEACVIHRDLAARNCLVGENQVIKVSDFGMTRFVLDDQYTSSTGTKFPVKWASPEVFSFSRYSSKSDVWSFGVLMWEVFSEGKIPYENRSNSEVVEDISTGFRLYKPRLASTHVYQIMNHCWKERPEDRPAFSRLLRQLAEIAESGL
Property: IC50 (µM)
Numbers only, in µM.

Below: 2 molecules and their reported IC50.
* C=CC(=O)N1CCCC[C@H]1c1nc(-c2ccc(C(=O)Nc3cc(-c4ccccc4)ccn3)cc2)c(C(N)=O)n1N | 2.21
* C=CC(=O)N1CCCC[C@H]1c1nc(-c2ccc(C(=O)Nc3cc(Cl)ccn3)cc2)c(C(N)=O)n1N | 29.5

Incoming: Fill in the blank: the reported IC50 of "C=CC(=O)N1CCCC[C@H]1c1nc(-c2ccc(C(=O)Nc3cc(C(F)(F)F)ccn3)cc2)c(C(N)=O)n1N" is ____.
Outgoing: 0.847

----------
assay: Cmax in ICR mouse at 15 mg/kg, po after 24 hrs; assay type: ADME, organism-based; parameters: route oral, time 24 hrs, dose 15 mg/kg; conditions: in vivo
Property: Cmax
Don't forget the unit after the value.

• C=CC(=O)N1CCCC[C@H]1c1nc(-c2ccc(C(=O)Nc3cc(C(F)(F)F)ccn3)cc2)c(C(N)=O)n1N = 2380 nM

Incoming: Need Cmax of CC#CC(=O)N1CCC[C@H]1c1nc(-c2ccc(C(=O)Nc3ccccn3)cc2)c2c(N)nccn12 [ACALABRUTINIB] , thanks.
Outgoing: 780 nM

----------
Molecular target: Tyrosine-protein kinase Tec (Homo sapiens, UniProt P42680)
Sequence (P42680 whole entry): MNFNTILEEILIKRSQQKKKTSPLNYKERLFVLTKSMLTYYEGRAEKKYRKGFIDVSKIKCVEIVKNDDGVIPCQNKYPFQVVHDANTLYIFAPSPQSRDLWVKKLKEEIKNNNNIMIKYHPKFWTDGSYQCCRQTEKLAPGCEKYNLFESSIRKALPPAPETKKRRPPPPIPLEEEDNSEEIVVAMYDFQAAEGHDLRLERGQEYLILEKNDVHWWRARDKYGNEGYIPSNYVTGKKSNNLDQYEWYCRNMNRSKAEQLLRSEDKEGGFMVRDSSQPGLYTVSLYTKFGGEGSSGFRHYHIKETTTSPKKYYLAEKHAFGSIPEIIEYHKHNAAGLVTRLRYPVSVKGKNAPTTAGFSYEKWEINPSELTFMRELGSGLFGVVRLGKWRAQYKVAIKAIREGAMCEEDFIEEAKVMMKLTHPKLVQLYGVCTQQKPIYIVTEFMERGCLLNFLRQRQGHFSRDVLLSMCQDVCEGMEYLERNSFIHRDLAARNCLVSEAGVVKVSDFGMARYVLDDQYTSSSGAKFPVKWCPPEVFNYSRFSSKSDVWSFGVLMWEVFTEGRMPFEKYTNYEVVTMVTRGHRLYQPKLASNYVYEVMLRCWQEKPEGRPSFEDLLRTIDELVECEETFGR
Property: IC50 (nM)
One number for each entry, in nM.

Incoming: Returns the measured IC50 for the input molecule. Input: "C=CC(=O)N1CCCC[C@H]1c1nc(-c2ccc(C(=O)Nc3cc(C(F)(F)F)ccn3)cc2)c(C(N)=O)n1N"
Outgoing: 15.7
